Where these numbers come from: patent US20210388087A1

Quick reference: fold change of affinity of the listed items.
molecular target: T1, Human CD137 ECD (human); assay: Biacore SPR, vs parent H183/L072
T1 construct: entry includes C-terminal His-tag and biotin acceptor peptide; also called human CD137 extracellular domain; 4-1BB
T1 sequence (chain, as listed by the source limits assumed): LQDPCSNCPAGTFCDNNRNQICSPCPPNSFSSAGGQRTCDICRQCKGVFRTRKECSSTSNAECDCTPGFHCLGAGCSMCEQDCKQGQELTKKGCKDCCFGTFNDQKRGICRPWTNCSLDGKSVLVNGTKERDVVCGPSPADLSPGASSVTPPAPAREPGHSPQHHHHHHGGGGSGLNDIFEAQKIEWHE
The reply should consist of the numeric value with the unit placed after it.

| binder | fold change of affinity |
| --- | --- |
| H183/L072 VL T31F (antibody, name in Kabat numbering, V domains shown, Dual-Ig) VH: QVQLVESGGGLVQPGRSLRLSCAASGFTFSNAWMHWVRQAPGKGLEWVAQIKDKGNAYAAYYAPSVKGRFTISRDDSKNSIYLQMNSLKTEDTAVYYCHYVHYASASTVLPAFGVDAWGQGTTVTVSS VL: DIVMTQSPLSLPVTPGEPASISCQASQELVHMNRNFYLHWYQQKPGQAPRLLIYKVSNRFPGVPDRFSGSGSGTDFTLKISRVEAEDVGVYYCAQGTSVPFTFGQGTKLEIK | 0.2 fold |

Could you now look at the following binder, please?
# input Looking for the measured fold change of affinity of H183/L072 VL V51G (antibody, name in Kabat numbering, V domains shown, Dual-Ig) VH: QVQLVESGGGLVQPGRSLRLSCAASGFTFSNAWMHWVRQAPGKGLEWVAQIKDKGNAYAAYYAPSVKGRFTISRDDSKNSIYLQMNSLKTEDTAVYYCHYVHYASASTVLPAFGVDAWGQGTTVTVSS VL: DIVMTQSPLSLPVTPGEPASISCQASQELVHMNRNTYLHWYQQKPGQAPRLLIYKGSNRFPGVPDRFSGSGSGTDFTLKISRVEAEDVGVYYCAQGTSVPFTFGQGTKLEIK , can you help?
# output 0.4 fold
